Where do these numbers come from? They come from PubChem BioAssay AID1159580.

# assay overview: chemical genetic growth profiling, strain panel (AID 1159580);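 note: tested at 20 µM; growth read once vehicle control cultures reached saturation at 30 °C; 1 = growth at the plate median or of vehicle wells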
# conditions: S. cerevisiae deletion strains, growth OD, locus YLR370C, strain arc18, stronger effect = lower value
In all, about 5,500 compounds went through this assay and about 2,000 (36%) were called active. Another 18% or so got no clear call; they are omitted. The list shows a part of the results.
observed property: normalized growth

# compound, data value
data = [
    ("O=C(O)c1cc(=O)c2ccccc2[nH]1", 0.987),
    ("CC(=O)NS(=O)(=O)c1ccc(N)cc1", 1.01),
    ("CC(=O)OCC1=C(C(=O)O)N2C(=O)[C@@H](NC(=O)CSc3ccncc3)[C@H]2SC1", 1.01),
    ("CC1=C(C(=O)O)N2C(=O)[C@@H](NC(=O)[C@@H](N)c3ccc(O)cc3)[C@H]2SC1", 1.02),
    ("CC(=O)Oc1c(C)c(C)c2c(c1C)CCC(C)(CCCC(C)CCCC(C)CCCC(C)C)O2 (stereo not given)", 1),
]

----------
# assay overview: chemical genetic growth profiling, strain panel (AID 1159580)
# conditions: S. cerevisiae deletion strains, growth OD, locus YPL209C, strain IPL1, stronger effect = lower value
Among all 5,500 compounds or so, about 2,000 (36%) were called active. Inconclusive results (about 18%) are left out. The list shows a part of the results.
normalized growth: recorded values

# compound, normalized growth
data = [
    ("CC1SC(c2cccnc2)N(c2ccc(Cl)cc2)C1=O (stereo not drawn)", "0.969 (inactive)"),
    ("O=[N+]([O-])c1ccc(Sc2ccccc2)c([N+](=O)[O-])c1", "0.883 (active)"),
    ("CCOC(=O)C(O)(c1ccc(NC(=O)c2ccc(Cl)c(Cl)c2)cc1)C(F)(F)F (stereo not drawn)", "0.996 (inactive)"),
    ("COc1ccc(Oc2ccc([N+](=O)[O-])cc2C(=O)O/N=C(/N)c2ccc(C(F)(F)F)cc2)cc1", "1 (inactive)"),
    ("O=C(/C=C/c1ccc(Cl)cc1)Nc1cccc(Cl)c1", "0.96 (inactive)"),
    ("O=C(Nc1ccc(F)cc1F)c1cc(Cl)ccc1O", "0.937 (inactive)"),
    ("Cc1cc2nc3c(Cl)c(O)c4ccccc4c3nc2cc1C", "0.976 (inactive)"),
    ("O=C(Nc1cc(Cl)cc(Cl)c1)c1cc(Cl)ccc1O", "0.925 (inactive)"),
]

----------
# assay overview: chemical genetic growth profiling, strain panel (AID 1159580)
# conditions: S. cerevisiae deletion strains, growth OD, locus YOL078W, strain AVO1, stronger effect = lower value
Among all 5,500 compounds or so, about 2,000 (36%) were called active. Another 18% or so got no clear call; they are omitted. This is one part of the list.
Examples of molecules with documented normalized growth follow.

# molecule, normalized growth
data = [
    ("COc1ccc(Oc2ccc([N+](=O)[O-])cc2C(=O)O/N=C(/N)c2ccc(C(F)(F)F)cc2)cc1", 1),
    ("Cn1cc(Br)c(-c2cccc(NS(=O)(=O)c3ccc(Cl)cc3)c2)n1", 1),
    ("CC1SC(c2cccnc2)N(c2ccc(Cl)cc2)C1=O (stereo not drawn)", 0.937),
]

----------
# assay overview: chemical genetic growth profiling, strain panel (AID 1159580)
# conditions: S. cerevisiae deletion strains, growth OD, locus YMR129W, stronger effect = lower value
Among all 5,500 compounds or so, about 2,000 (36%) were called active. About 18% were inconclusive and are not listed. The list shows a part of the results.
Hi! Just check whether normalized growth is below 1. Below gives T, equal or above gives F.

# chemical string, class
data = [
    ("O=C1C=C(O)c2ccccc2C1=O", "T"),
    ("CN1CCC[C@H]1c1cccnc1", "F"),
    ("O=C(Nc1ccc([N+](=O)[O-])cc1Cl)c1cc(Cl)ccc1O", "T"),
    ("O=c1c(O)c(-c2ccccc2)oc2cc(O)ccc12", "T"),
    ("C=CC[C@@H]1/C=C(\\C)C[C@H](C)C[C@H](OC)[C@H]2O[C@@](O)(C(=O)C(=O)N3CCCC[C@H]3C(=O)O[C@H](/C(C)=C/[C@@H]3CC[C@@H](O)[C@H](OC)C3)[C@H](C)[C@@H](O)CC1=O)[C@H](C)C[C@@H]2OC", "F"),
    ("COc1ccc(-c2c(O)c3c(OC)c4c(cc3oc2=O)OC(C)(C)C=C4)cc1", "T"),
    ("Oc1cccc2cccnc12", "T"),
    ("CC1=C(C(=O)O)N2C(=O)[C@@H](NC(=O)[C@@H](N)c3ccc(O)cc3)[C@H]2SC1", "F"),
]

----------
The entries below are paired with their reported normalized growth.
# assay overview: chemical genetic growth profiling, strain panel (AID 1159580);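 note: tested at 20 µM; growth read once vehicle control cultures reached saturation at 30 °C; 1 = growth at the plate median or of vehicle wells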
# conditions: S. cerevisiae deletion strains, growth OD, locus YIL066C, strain RNR3, stronger effect = lower value
The whole screen tested about 5,500 compounds, of which about 2,000 (36%) were called active. Not shown: some 18% with an inconclusive outcome. This is one part of the list.

# compound, normalized growth
rows = [
    ("CC[C@H]1OC(=O)[C@H](C)[C@@H](O[C@H]2C[C@@](C)(OC)[C@@H](O)[C@H](C)O2)[C@H](C)[C@@H](O[C@@H]2O[C@H](C)C[C@H](N(C)C)[C@H]2O)[C@](C)(O)C[C@@H](C)/C(=N/OCOCCOC)[C@H](C)[C@@H](O)[C@]1(C)O", 0.983),
    ("CN1CCCCC1c1ccc(-c2cccnc2)nc1 (stereo not drawn)", 1.05),
    ("COc1cc([C@@H]2c3cc4c(cc3[C@H](O)[C@H]3COC(=O)[C@H]23)OCO4)cc(OC)c1OC", 1.02),
]

----------
# assay overview: chemical genetic growth profiling, strain panel (AID 1159580);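 note: tested at 20 µM; growth read once vehicle control cultures reached saturation at 30 °C; 1 = growth at the plate median or of vehicle wells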
# conditions: S. cerevisiae deletion strains, growth OD, locus YNL271C, strain bni1
In all, about 5,500 compounds went through this assay and about 2,000 (36%) were called active. About 18% were inconclusive and are not listed. Cut-off read from the data, not from the text of the source: active = normalized growth mostly below about 0.91 (no sharp cut-off); inconclusive = no clear call, values can overlap the other calls; inactive = mostly above about 0.92. This is one part of the list.
Outcomes: Yes (active), No (inactive)

# compound, class
rows = [
    ("CN1CCC[C@H]1c1cccnc1", "No"),
    ("CC(C)[C@@H]1CC[C@@H](C)CC1=O", "No"),
    ("O=C1c2cccc(O)c2C(=O)c2c(O)cccc21", "Yes"),
    ("O=C(N[C@@H](CO)[C@H](O)c1ccc([N+](=O)[O-])cc1)C(Cl)Cl", "No"),
    ("CN1C(=O)CC[C@H]1c1cccnc1", "No"),
    ("CC1(C)CC23C(=O)CCC(O)C2(C)CCC13 (centres undefined)", "No"),
    ("CC(C)c1cc2c(c(O)c1O)[C@@]1(C(=O)O)CCCC(C)(C)C1CC2 (some centres undefined)", "Yes"),
    ("O=C1C(=O)c2ccccc2C(O)=C1C1CCC(c2ccc(Cl)cc2)CC1 (centres undefined)", "No"),
    ("COC(=O)C[C@H]1C(C)(C)[C@@H](OC(C)=O)[C@@H]2CC3=C4CC(=O)O[C@@H](c5ccoc5)[C@]4(C)CCC3[C@@]1(C)C2=O (some centres undefined)", "No"),
    ("CCCc1ncc(C[n+]2ccccc2C)c(N)n1", "No"),
    ("O=C(/C=C/c1ccc(O)cc1)c1ccc(O)cc1O", "No"),
    ("COc1cc2c(cc1OC)C(C)NCC2 (centres undefined)", "No"),
    ("CC(=O)OC1CCC2(O)CC1(C)CCC1C2CC1(C)C (centres undefined)", "No"),
    ("ClC1C(Cl)C(Cl)C(Cl)C(Cl)C1Cl (centres undefined)", "No"),
    ("COc1cc(OC)c2c(OC)c(-c3ccc4c(c3)OCO4)c(=O)oc2c1", "No"),
    ("O=C(O)c1cccnc1C(=O)O", "No"),
    ("O=C(O)c1cc(O)c2c(c1)C(=O)c1cc(O)cc(O)c1C2=O", "No"),
    ("O=C1NS(=O)(=O)c2ccccc21", "No"),
    ("CC(=O)Nc1c(I)cc(I)c(C(=O)O)c1I", "No"),
]

----------
# assay overview: chemical genetic growth profiling, strain panel (AID 1159580);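 note: tested at 20 µM; growth read once vehicle control cultures reached saturation at 30 °C; 1 = growth at the plate median or of vehicle wells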
# conditions: S. cerevisiae deletion strains, growth OD, locus YPR167C, strain met16
The campaign covered roughly 5,500 compounds. About 2,000 (36%) were called active. Not shown: some 18% with an inconclusive outcome. No stated cut-off is given here; in the data, active means normalized growth mostly below about 0.91 (no sharp cut-off); inconclusive means no clear call, values can overlap the other calls; inactive means mostly above about 0.92. This is one part of the list.
Possible outcomes: yes (1) (active), no (0) (inactive)

# compound, class
data = [
    ("CN1C(=O)CC[C@H]1c1cccnc1", "no (0)"),
    ("Cn1c(=O)c2c(ncn2CCCl)n(C)c1=O", "no (0)"),
    ("CC(=O)OCC1=C(C(=O)O)N2C(=O)[C@@H](NC(=O)CSc3ccncc3)[C@H]2SC1", "no (0)"),
    ("Cc1c(NC(C)C)c(=O)n(-c2ccccc2)n1C", "no (0)"),
    ("COc1cc([C@@H]2c3cc4c(cc3[C@H](O)[C@H]3COC(=O)[C@H]23)OCO4)cc(OC)c1OC", "no (0)"),
    ("CC(C)[C@@H]1CC[C@@H](C)CC1=O", "no (0)"),
    ("C/C(=C\\CO)CC[C@H](C)CCC[C@H](C)CCCC(C)C", "yes (1)"),
    ("Cn1c(=O)[nH]c2ncn(C)c2c1=O", "no (0)"),
    ("COC1=CC23CCCN2CCc2cc4c(cc2C3C1O)OCO4 (stereo unspecified)", "no (0)"),
    ("C[C@]12CC[C@@H](O)C[C@H]1CCc1ccccc12", "no (0)"),
    ("CN1CCN(C2=Nc3cc(Cl)ccc3Nc3ccccc32)CC1", "no (0)"),
]
